system tested: human serum albumin (human) (UniProt P02768)
Sequence (P02768 25-609 limits assumed): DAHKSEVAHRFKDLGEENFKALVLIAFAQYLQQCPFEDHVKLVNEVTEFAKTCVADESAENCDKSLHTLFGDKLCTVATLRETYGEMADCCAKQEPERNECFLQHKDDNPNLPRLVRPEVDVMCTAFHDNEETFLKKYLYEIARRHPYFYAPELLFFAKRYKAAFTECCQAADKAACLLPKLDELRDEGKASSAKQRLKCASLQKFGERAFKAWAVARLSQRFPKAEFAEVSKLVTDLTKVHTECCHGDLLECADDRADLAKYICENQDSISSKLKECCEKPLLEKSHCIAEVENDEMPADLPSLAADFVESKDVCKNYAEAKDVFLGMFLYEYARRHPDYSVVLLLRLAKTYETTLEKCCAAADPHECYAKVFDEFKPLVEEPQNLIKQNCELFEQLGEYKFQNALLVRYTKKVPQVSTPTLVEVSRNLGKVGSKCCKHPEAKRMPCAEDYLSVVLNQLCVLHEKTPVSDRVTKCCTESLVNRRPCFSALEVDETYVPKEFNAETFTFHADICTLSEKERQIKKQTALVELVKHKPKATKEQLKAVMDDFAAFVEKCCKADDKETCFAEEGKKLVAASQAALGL
test details: screening ELISA
endpoint: HSA

SEQ ID NO 177 (designed binder) MLPAPKNLVVSRVTEDSARLSWTAPDAAFDSFFIGYLEPQPPGEAIVLTVPGSERSYDLTGLKPGTEYNVTIQGVKGGRASGPLSAIFTT = 2450
SEQ ID NO 47 (designed binder) MLPAPKNLVVSRVTEDSARLSWTAPDAAFDSFTIWYAEALGDGEAIVLTVPGSERSYDLTGLKPGTEYFVDIYGVKGGFWSLPLSAIFTT = 5200
SEQ ID NO 189 (designed binder) MLPAPKNLVVSRVTEDSARLSWTAPDAAFDSFHEWVYFGEAIVLTVPGSERSYDLTGLKPGTEYFVDIWGVKGGTVSKPLSAIFTT = 67500
SEQ ID NO 212 (designed binder) MLPAPKNLVVSRVTEDSARLSWTAPDAAFDSFIIEYWEQIGVGEAIVLTVPGSERSYDLTGLKPGTEYWVGIYGVKGGLLSSPLSAIFTT = 2250
SEQ ID NO 223 (designed binder) MLPAPKNLVVSRVTEDSARLSWTAPDAAFDSFTIWYAEALGDGEAIVLTVPGSERSYDLTGLKPGTEYFVDIPGVKGGTRSSPLSAISTT = 52000
